tgt: recombinant purified human IL-12 p70 (human) (UniProt P29459)
Sequence (chain, as listed by the source, form in doubt, chain 1 of 2): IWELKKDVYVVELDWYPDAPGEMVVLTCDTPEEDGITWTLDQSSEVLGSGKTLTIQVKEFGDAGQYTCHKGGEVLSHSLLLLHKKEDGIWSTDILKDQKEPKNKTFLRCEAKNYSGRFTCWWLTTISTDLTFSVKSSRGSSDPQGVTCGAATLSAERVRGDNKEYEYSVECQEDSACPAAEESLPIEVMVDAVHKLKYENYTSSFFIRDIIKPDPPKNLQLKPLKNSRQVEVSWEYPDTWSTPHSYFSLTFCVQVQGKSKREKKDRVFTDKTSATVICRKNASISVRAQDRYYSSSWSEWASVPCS
Sequence (P29459 23-219, form in doubt, chain 2 of 2): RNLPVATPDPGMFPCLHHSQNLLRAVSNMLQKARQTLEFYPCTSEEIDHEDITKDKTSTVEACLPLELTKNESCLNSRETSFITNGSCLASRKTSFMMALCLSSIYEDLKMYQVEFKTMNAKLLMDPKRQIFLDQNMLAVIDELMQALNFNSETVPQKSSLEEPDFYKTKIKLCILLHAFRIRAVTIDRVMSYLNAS
experimental_details: SPR (Biacore 3000), mAb captured via goat anti-mouse IgG Fc, human IL-12 p70 in solution
binders and their reported kon
Enter your answer as a number in M⁻¹ s⁻¹; do not include the unit.

Observe how each entry below is paired with its result.
- 3G7 (antibody, V domains shown) VH: QVQLQQSGAELMKPGASVKISCKATGYTFNDYWIEWVKQRPGHGLEWIGGFSHGSGSTNYNEKFKGKATFTADSSSNTAYMQLSSLTSEDSAVYYCARRRFRGMDYWGQGTSVTVSS VL: SIVMTQTPKFLLVSAGDRVTITCKASQSVSNDVAWYQQKPGQSPKLLIYYASNRYTGVPDRFTGSGYGTDFTFTITTVQAEDLAVYFCQQDYSSPWSFGGGTKLEIKR: 820000
- 8E1 (antibody, V domains shown) VH: EVKLVESGGGLVQPGGSRKLSCAASGFTFSDYGMVWVRQAPGKGLEWVASISSGSSNIYYADTVKGRFTISRDDPNNTLFLQMRSLRSEDTAMYYCARNPYWGQGTTLTVSS VL: DIVMTQSQKFMSTSVGDRVSVTCKASQNVGTNVAWYQQKPGQSPKGLIYSASHRYSGVPDRFAGSGSGTDFTLTISNVQSEDLAEYFCQQYNSYPLTFGGGTKLELKR: 690000

Consider the additional binder presented here.
Item: 1D4 (antibody, V domains shown) VH: QVTLKESGPGILQPSQTLSLTCSFSGFSLRKSVMGVSWIRQPSGKGLEWLAHIYWDDDKYYNPSLKSRLTISKDPSRNQVFLKITSVDTADAATYYCTRRGIRSAMDYWGQGTSVTVSS VL: SVVMTQTPKFLLVSAGDRVTITCKASQSVSNDVAWYQQKPGQSPKLLIYYASNRYTGVPDRFTGSGYGTDFTFIISTVRAEDLAVYFCQQDYNSPWTFGGGTKLEIKR | kon: 250000
